Entry source: patent US11377425B1

TESTED_ON: human IL-17AA (Homo sapiens, UniProt Q16552)
Sequence (Q16552 24-155): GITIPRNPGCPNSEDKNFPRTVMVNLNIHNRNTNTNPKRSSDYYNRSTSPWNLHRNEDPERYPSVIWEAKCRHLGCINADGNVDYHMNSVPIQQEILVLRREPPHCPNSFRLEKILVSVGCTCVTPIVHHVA
ASSAY_TEXT: IL-8 release assay in human epithelial keratinocytes adult (HEKa)
REPORTED_CONDITIONS: HEKa cells, 3 ng/mL HEK-human IL-17AA + 10 ng/mL human TNFalpha; read-out: Rel EC50 IL-8 release assay
pEC50: −log10 of the molar value.
Exercise: for every item that follows, state its recorded pEC50.

Task: Write down measured pEC50 (human IL-17AA (Homo sapiens, UniProt Q16552)) for this compound. CCn1nccc1C(=O)N[C@H](C(=O)Nc1ccc(-c2c(C)ncn2C)c(O)c1)C(C1CC1)C1CC1
Output: 6.00 to 7.00

Task: Report value only: pEC50, human IL-17AA (Homo sapiens, UniProt Q16552), Cc1n[nH]c(C)c1-c1ccc(NC(=O)[C@H](CC2CC2)NC(=O)c2ccnn2C)cc1
Output: < 6.00

Task: State measured pEC50 of the compound Cc1n[nH]c(C)c1-c1ccc(NC(=O)[C@@H](NC(=O)OCc2ccccn2)C2CCCCC2)cc1 with human IL-17AA (Homo sapiens, UniProt Q16552).
Output: 6.00 to 7.00

Task: Provide the reported pEC50 (system: human IL-17AA (Homo sapiens, UniProt Q16552)) for Cc1n[nH]c(C)c1-c1ccc(NC(=O)[C@@H](NC(=O)N2CCCC2)C2CCCCC2)cc1
Output: < 6.00

Task: Report pEC50 under test system human IL-17AA (Homo sapiens, UniProt Q16552) for Cc1n[nH]c(C)c1-c1ccc(NC(=O)[C@@H](NC(=O)c2ccnn2C(C)CO)C2CCCCC2)cc1 (single isomer, unassigned) [Example 104] .
Output: 6.00 to 7.00

Task: State, for human IL-17AA (Homo sapiens, UniProt Q16552), measured pEC50 of the compound listed here: Cc1n[nH]c(C)c1-c1ccc(NC(=O)[C@@H](NC(=O)O[C@H](C)CC[C@@H](C)O)C(C2CC2)C2CC2)cc1
Output: 6.00 to 7.00

Task: Provide human IL-17AA (Homo sapiens, UniProt Q16552) pEC50 reading for Cc1n[nH]c(C)c1-c1ccc(NC(=O)[C@@H](NC(=O)c2ccnn2C)[C@H]2CCCC(F)(F)C2)cc1 .
Output: 6.00 to 7.00

* * *

TESTED_ON: human IL-17AA (Homo sapiens)
ASSAY_TEXT: IL-8 release assay in human epithelial keratinocytes adult (HEKa)
REPORTED_CONDITIONS: HEKa cells, 3 ng/mL HEK-human IL-17AA + 10 ng/mL human TNFalpha; read-out: Rel EC50 IL-8 release assay
pEC50: −log10 of the molar value.
MEASURED_PROPERTY: pEC50

Task: With human IL-17AA (Homo sapiens) as the test system, provide measured pEC50 for this compound: CCn1nccc1C(=O)N[C@H](C(=O)Nc1ccc(-c2c(C)n[nH]c2C)cc1)C(C1CC1)C1CC1
Output: > 7.00

Task: Tell me its pEC50 on human IL-17AA (Homo sapiens): Cc1ncc(CC(=O)N[C@H](C(=O)Nc2ccc(-c3c(C)n[nH]c3C)cc2)C2CCCCC2)s1
Output: < 6.00

Task: Under human IL-17AA (Homo sapiens): report pEC50 of Cc1n[nH]c(C)c1-c1ccc(NC(=O)[C@@H](NC(=O)c2ccnn2C)C(C)C2CCC2)cc1 (single isomer, unassigned) [Example 195] .
Output: 6.00 to 7.00

Task: Provide pEC50, tested on human IL-17AA (Homo sapiens), for Cc1n[nH]c(C)c1-c1ccc(NC(=O)[C@@H](NC(=O)c2ccnn2C)C2CCC(C(F)(F)F)CC2)cc1 (single isomer, unassigned) .
Output: 6.00 to 7.00

Task: Tell me its pEC50 on human IL-17AA (Homo sapiens): Cc1[nH]nc(C(C)O)c1-c1ccc(NC(=O)[C@@H](NC(=O)OC(C)(C)C)C(c2ccccc2)c2ccccc2)cc1 (stereo partly drawn)
Output: 6.00 to 7.00

Task: State recorded pEC50 with human IL-17AA (Homo sapiens), entry Cn1cncc1-c1ccc(NC(=O)[C@@H](NC(=O)c2ccnn2C)C2CCCCC2)cc1O , no comment.
Output: 6.00 to 7.00

Task: Lab note: record pEC50 of CCc1n[nH]c(CC)c1-c1ccc(NC(=O)[C@@H](NC(=O)c2ccnn2[C@@H](C)CO)C(C2CC2)C2CC2)cc1 tested on human IL-17AA (Homo sapiens).
Output: > 7.00

Task: Using human IL-17AA (Homo sapiens) as the test system, report measured pEC50 of Cc1n[nH]c(C)c1-c1ccc(NC(=O)[C@@H](NC(=O)c2ccnn2C)[C@@H]2CCc3ccc(Br)cc32)cc1 .
Output: 6.00 to 7.00

Task: Give pEC50; test system human IL-17AA (Homo sapiens); compound Cc1n[nH]c(C)c1-c1ccc(NC(=O)[C@@H](NC(=O)c2ccnn2C)C2CCC2(C)C)cc1 (single isomer, unassigned)
Output: 6.00 to 7.00
